Listed here: items and their measured growth.
System: SF-268 CNS
Test: NCI-60 one-dose screen, 48 h (100 = growth as untreated, 0 = no growth, -100 = all killed)
Settings: 10 µM unless noted
Compounds without any hit were thinned out: in the full panel of roughly 83,000, 20% have a hit.
A number alone suffices; assume %.

Prompt: Given the entry Cc1ccn2c(-c3csc(Nc4cccc(O)c4)n3)c(C)nc2c1 , report its measured growth.
Completion: 39.5

Prompt: Moving on to COc1ccc(C(=O)COc2ccc(/C=C3\Oc4ccc(Cl)cc4C3=O)cc2)cc1
Completion: 108

Prompt: Query COc1ccc(CN(c2ccc(C)cc2)C2OC(=O)c3ccccc32)cc1OC (stereo not given) next
Completion: 113

Prompt: Then this molecule: O=C1/C(=C/c2ccccc2)CN(CCC(=O)N2C/C(=C\c3ccccc3)C(=O)/C(=C/c3ccccc3)C2)C/C1=C\c1ccccc1
Completion: 66.6

# input for lookup
Prompt: Request the reported growth associated with CC/C=C\C[C@H](O)C/C=C1/C(=O)C=C[C@@H]1C/C=C\CCCC(=O)NC
Completion: 27.7

###

Tested on: A549/ATCC NSCLC
Assay: NCI-60 one-dose screen, 48 h
Details: 10 µM unless noted
About 83,000 compounds went through this panel and 20% of them were active in at least one assay; those are over-represented in the sample as a whole. Calls of active or inactive are those of the source. Rule for the calls: active = growth percent below 10; inactive = the rest.
In this exercise, the only acceptable responses are True for active, False for inactive

Prompt: Could you check what this test reported for Brc1cccc(-c2nc(-c3ccc4c(c3)OCCO4)co2)c1 ?
Completion: False

Prompt: Check Cc1cc(Nc2nc(N3CCOCC3)nc3ccccc23)n[nH]1 too.
Completion: False

Prompt: Same read-out for COc1ccc(C2CC(=O)Nc3c2c(C)nn3-c2nc3ccccc3[nH]2)cc1 (configuration not stated) ?
Completion: False

Prompt: Moving on to the next molecule: NC(N)=Nc1ccc(S(=O)(=O)O)cc1
Completion: False

Prompt: Moving on to COc1ccc2nc3cc(Cl)ccc3c(N3CCN(c4ccnc(N5CCOCC5)n4)CC3)c2c1
Completion: False

Next:
Prompt: Outcome? CCCCCCCCCCCCCC(=O)C(C)N (configuration not stated)
Completion: False

Prompt: Further, for COc1cc(NCCCCN=C(N)N)c2ncccc2c1 ?
Completion: False

Prompt: Lookup COc1cc(NCCCCN=C(N)NC(N)=NC(C)C)c2ncccc2c1
Completion: False

Prompt: What do we get for Cc1nc2sc(C(=O)Nc3cccc4c3OCCO4)c(N)c2cc1C(C)O (configuration not stated) ?
Completion: False

Prompt: Next record, please: CCCCCCCCCCCCNC(=O)[C@H]1CSC(c2ccc(OC)c(F)c2)N1 (some centres not stated)
Completion: True

Prompt: Please give the result for CCCN(CCC)CN(CCC)CCC too.
Completion: False

Prompt: Also COc1nc2c(cc1S(=O)(=O)c1ccccc1)CCc1c-2cnn1Cc1ccccc1 , if possible.
Completion: False

###

Test system: OVCAR-8 ovarian
Assay: NCI-60 one-dose screen, 48 h
Conditions: 10 µM unless noted
The panel holds about 83,000 compounds, 20% with a hit somewhere; the sample as a whole holds those more often. Calls of active or inactive are those of the source. Rule for the calls: active = growth percent below 10; inactive = the rest.
I would appreciate it if you answered using one of these outcomes: active, inactive

Past entries and their recorded results:
Prompt: For CC[C@@H](C)OC(=O)c1nn(C(C)=O)c2ccccc12 , what call appears in the results of this test?
Completion: inactive

Prompt: What do you get for CCCCCCCCCCCCCCCCCCSC1=CC(=O)C(OC)=C(OC)C1=O ?
Completion: inactive

Prompt: Next compound: C=C1CCC2C3(C)COC(c4ccccc4Br)OC3CCC2(C)C1C/C=C1/C(=O)OCC1OC(C)=O (configuration not stated)
Completion: active

Prompt: And for Cc1ccc(Nc2c(C(N)=O)cnc3ccc(-c4csc(N)n4)cc23)cc1 ?
Completion: inactive

Continuing:
Prompt: Entry COCCCNc1nc(NC(=O)c2ccc(F)cc2C)cc(-c2cccnc2)n1 : call = ?
Completion: inactive

Prompt: Try this compound too: Clc1ccc(-c2nnc(COc3ccccc3Cl)o2)cc1
Completion: inactive

###

System: SK-OV-3 ovarian
Assay: NCI-60 one-dose screen, 48 h (100 = growth as untreated, 0 = no growth, -100 = all killed)
Settings: 10 µM unless noted
About 83,000 compounds went through this panel and 20% of them were active in at least one assay; those are over-represented in the sample as a whole.
QUANTITY_MEASURED: growth (%)
// units = %; emit number, no label

Guide cases for growth, answers given:
Prompt: # get_value(readout='growth', item= CCCCCCCCCCCCCCCCCCNC(=O)[C@H]1CSC(c2ccc(F)c(OC)c2)N1 (some centres undefined) )
Completion: 10.5

Prompt: Same again, this time with COc1cc(OC)c(/C=C/S(=O)(=O)Cc2cnc(OC)c(N)c2)c(OC)c1
Completion: 11.9

Prompt: Check c1ccc(Sc2ncnc3ccccc23)cc1 too.
Completion: 112

Prompt: Same for CCOC(=S)SCc1ccc(Cl)cc1
Completion: 150

Prompt: Queued: CCOC(=O)C(CC)n1c(=O)c2cc(OC)c(OC)cc2c2cnc3[nH]ccc3c21 (centres undefined)
Completion: 58.5

***
Prompt: Return reported growth; argument: COc1ccc(N(Cc2cc(OC)c(OC)c(OC)c2)C2OC(=O)c3ccccc32)cc1 (centres undefined)
Completion: 13.3

Prompt: // query: O=c1c2cccc3c(NC4CCCCC4)ccc(c32)c2nc3ccccc3n12
Completion: 98.3

Prompt: Also COc1ccc(-c2cn3c(ccc4ccccc43)n2)cc1 ?
Completion: 92.8

Prompt: And what about the molecule CSc1nc(NCCO)c(C#N)c(-c2cccc(N)c2)n1 ?
Completion: 93

Prompt: Another: C=C(CN1CCN(c2cccc(C(F)(F)F)n2)CC1)c1ccc(C(=O)Nc2ccccc2N)cc1
Completion: 21.2

Prompt: Another: COc1cccc2c1C(=O)c1c(O)c3c(c(O)c1C2=O)C[C@@](O)(/C(C)=N/NC(=O)c1ccc(Cl)cc1)C[C@@H]3OC1CC(N)C(O)C(C)O1 (some centres undefined)
Completion: 5.07

Prompt: Subsequent entry: Nc1ccc(Nc2nccc(-c3ccc4ccccc4c3)n2)cc1
Completion: 60.7

Prompt: Query O=C1Nc2ccc(Br)cc2C12CC(c1ccccc1)=NN2 (centres undefined) next
Completion: 48.4

###

System: TK-10 renal
Test: NCI-60 one-dose screen, 48 h (100 = growth as untreated, 0 = no growth, -100 = all killed)
Conditions: 10 µM unless noted
Compounds without any hit were thinned out: in the full panel of roughly 83,000, 20% have a hit.
Short version: growth at least 70% is yes (1), less is no (0).

Here's what some known entries look like.
Prompt: In plain terms: is recorded growth at least 70% for COc1ccc2nc3cc(Cl)ccc3c(N3CCN(c4ccnc(N5CCN(C)CC5)n4)CC3)c2c1 ?
Completion: no (0)

Prompt: Likewise for CC#CC#Cc1cccc(=O)o1 ?
Completion: yes (1)

Prompt: Same lookup for O=C1CCc2c(sc3[nH]c(=S)n(Cc4ccccc4)c(=O)c23)C1 , please.
Completion: no (0)

Prompt: Do the same for COc1cc(C#N)cc(OC)c1OCCN(CCOc1c(OC)cc(C#N)cc1OC)S(=O)(=O)c1ccc(C)cc1 please
Completion: yes (1)

Prompt: Next compound up: O=C1NC(=O)C(CC(=O)n2c(-c3ccccc3)nc3ccccc32)C(=O)N1
Completion: yes (1)

Further cases:
Prompt: Quick check: does CC1(C)CC(C(=O)OCCCCCCCCCCC[P+](c2ccccc2)(c2ccccc2)c2ccccc2)C(C)(C)N1O (centres undefined) have growth greater than or equal to 70%?
Completion: no (0)

Prompt: Next entry: O=C(/C=C/c1ccc(Cl)cc1)c1ccc(O)c(CN2CCN(c3cc4c(cc3F)c(=O)c(C(=O)O)cn4C3CC3)CC2)c1
Completion: yes (1)

Prompt: Then COc1ccc(/C(=C/c2ccc3ccccc3c2)c2nn[nH]n2)cc1OC ?
Completion: no (0)

Prompt: Moving on to CCOC(=O)c1cnc2ccc(Br)cc2c1Nc1cccc(S(=O)(=O)NC)c1
Completion: yes (1)

###

Tested on: SNB-75 CNS
Test: NCI-60 one-dose screen, 48 h (100 = growth as untreated, 0 = no growth, -100 = all killed)
Conditions: 10 µM unless noted
About 83,000 compounds went through this panel and 20% of them were active in at least one assay; those are over-represented in the sample as a whole.
Threshold 70%. growth below it: T. growth at it or above: F.

These solved cases illustrate the format of a correct answer.
Prompt: hey, is growth for CC/C(Cc1ccccc1)=C(\c1ccc(OCCN2CCCC2)cc1)c1ccc(OC(C)=O)cc1 lower than 70% or not?
Completion: T

Prompt: Now the same for NC(=S)N/N=C/c1ccc(OCc2ccccc2)cc1
Completion: T

Prompt: Same again, this time with OCC1C2C=CC(C2)C1CO (configuration not stated)
Completion: F

Prompt: // query: C=CCSc1nnc(-c2ccc(C(C)(C)C)cc2)n1-c1cccc(C(F)(F)F)c1
Completion: F

Prompt: Input Cc1ccn2c(-c3csc(Nc4cccc(O)c4)n3)c(C)nc2c1
Completion: T

---
Prompt: Find out if reported growth for CC#CC#Cc1cccc(=O)o1 is less than 70%
Completion: F

Prompt: Another compound to check: Nc1cc2nc3ccccc3sc-2cc1=O
Completion: F

Prompt: Also COc1ccc(-c2cc(C(=O)N=Nc3c(O)[nH]c4ccccc34)no2)cc1 , if possible.
Completion: T

Prompt: Moving on to the next compound: CN1/C(=C\C=C\C2=[N+](C)c3ccccc3C2(C)C)C(C)(C)c2ccccc21
Completion: T

Prompt: Request: COc1cnc2c(c1)C(=O)c1c-2n(CCCN2CCCC2)c(=O)c2cc([N+](=O)[O-])ccc12
Completion: T

Data origin: PubChem BioAssay (NCI)
